Data provenance is patent US5453533A.

molecular target: type B (B/Memphis/3/89) neuraminidase (Influenza B virus (B/Memphis/3/89)); format: biochemical; conditions: read-out: IC50, MUN substrate, B/Mem/89; pH 6
Consider the following compounds and their measured IC50 readings.
Value expressed in µM; do not type the unit.

Record excerpt, results attached:
{"columns": ["COMPOUND", "RESULT_UNIT", "VALUE"],
 "data": [
  ["CC(=O)Nc1c(OC(C)=O)cc(C(=O)O)cc1[N+](=O)[O-]", "µM", 2000],
  ["CC(=O)N[C@H]1[C@H]([C@H](O)[C@H](O)CO)OC(C(=O)O)=C[C@@H]1O [DANA, reference compound]", "µM", 15]
]}

# evaluate next
Read the entry `CC(=O)Nc1ccc(C(=O)O)cc1NC(=O)CO` and write its reported IC50.
3000

---

molecular target: type B (B/Memphis/3/89) neuraminidase (Influenza B virus (B/Memphis/3/89), UniProt P16199); type: biochemical; settings: whole virus; 50% inhibition of NA activity; MUN; 15 minutes at 37° C, pH 6.0; read-out: IC50, MUN substrate, B/Mem/89
Sequence (P16199 whole entry, looked up): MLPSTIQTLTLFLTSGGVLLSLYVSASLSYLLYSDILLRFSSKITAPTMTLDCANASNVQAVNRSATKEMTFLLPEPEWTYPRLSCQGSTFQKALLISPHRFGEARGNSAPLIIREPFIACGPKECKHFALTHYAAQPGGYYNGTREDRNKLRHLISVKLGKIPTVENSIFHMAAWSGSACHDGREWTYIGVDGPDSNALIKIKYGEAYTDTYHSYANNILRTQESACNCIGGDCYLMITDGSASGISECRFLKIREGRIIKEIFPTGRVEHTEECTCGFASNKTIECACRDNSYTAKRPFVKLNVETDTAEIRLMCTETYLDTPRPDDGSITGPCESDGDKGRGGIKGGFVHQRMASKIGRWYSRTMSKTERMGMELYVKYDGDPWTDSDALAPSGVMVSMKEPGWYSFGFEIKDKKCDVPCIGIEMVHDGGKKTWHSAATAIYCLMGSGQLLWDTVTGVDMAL
ENDPOINT_NAME: IC50

Read the entry CC(=O)N[C@H]1[C@H]([C@H](O)[C@H](O)CO)OC(O)(C(=O)O)C[C@@H]1O (some centres unmarked) [sialic acid, N-acetylneuraminic acid, reference compound] and write its reported IC50.
> 10 mM

Read the entry `CC(=O)Nc1ccc(C(=O)O)cc1[N+](=O)[O-]` and write its reported IC50.
5 mM

---

molecular target: type B (B/Memphis/3/89) neuraminidase (Influenza B virus (B/Memphis/3/89)); assay type: biochemical; settings: read-out: IC50, MUN substrate, B/Mem/89; pH 6
ENDPOINT_NAME: IC50

Read the entry CC(=O)Nc1ccc(C(=O)O)cc1O [Compound 101, 4-(acetylamino)-3-hydroxybenzoic acid] and write its reported IC50.
> 10 mM

Read the entry CC(=O)Nc1ccc(C(=O)O)cc1OC(C)=O [Compound 102, 4-(acetylamino)-3-acetoxybenzoic acid] and write its reported IC50.
> 10 mM

Read the entry CC(=O)Nc1ccc(C(=O)O)cc1N [Compound 108, 4-(acetylamino)-3-aminobenzoic acid] and write its reported IC50.
> 20 mM

Read the entry CC(=O)Nc1ccc(C(=O)O)cc1NC(=O)CCCN [Compound 112] and write its reported IC50.
> 10 mM

---

Consider the following compounds and their measured IC50 readings.
target: N2 (A/Tokyo/67) neuraminidase (Influenza A virus); experiment: biochemical; set-up: species or system influenza A virus (A/Tokyo/67)
Sequence (P06820 whole entry, looked up): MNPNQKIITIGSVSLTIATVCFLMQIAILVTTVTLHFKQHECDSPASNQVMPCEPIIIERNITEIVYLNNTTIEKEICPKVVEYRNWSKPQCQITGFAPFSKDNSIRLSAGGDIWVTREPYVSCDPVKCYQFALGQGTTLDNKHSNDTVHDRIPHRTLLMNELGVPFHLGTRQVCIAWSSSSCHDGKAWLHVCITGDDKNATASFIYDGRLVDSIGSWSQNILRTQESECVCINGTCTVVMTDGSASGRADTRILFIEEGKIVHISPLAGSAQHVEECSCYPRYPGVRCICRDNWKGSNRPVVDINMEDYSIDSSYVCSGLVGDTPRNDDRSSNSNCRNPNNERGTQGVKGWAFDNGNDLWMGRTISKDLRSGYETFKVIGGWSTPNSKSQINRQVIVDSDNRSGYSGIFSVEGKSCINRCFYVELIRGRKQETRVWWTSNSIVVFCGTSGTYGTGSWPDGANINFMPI

Record excerpt, results attached:
{"columns": ["COMPOUND", "IC50"],
 "data": [
  ["CC(=O)Nc1ccc(C(=O)O)cc1O [Compound 101, 4-(acetylamino)-3-hydroxybenzoic acid]", "> 10 mM"],
  ["CC(=O)Nc1ccc(C(=O)O)cc1N", "> 10 mM"],
  ["CC(=O)Nc1ccc(C(=O)O)cc1OC(C)=O", "> 10 mM"],
  ["CC(=O)Nc1ccc(C(=O)O)cc1NC(=O)CCCN", "> 10 mM"]
]}

# evaluate next
Read the entry CC(=O)Nc1c(N)cc(C(=O)O)cc1O.Cl [Compound 106, hydrochloride] and write its reported IC50.
> 10 mM
